Measured growth inhibition by item
- assay method text: inhibition of 3D7 malaria parasite growth – strain 3D7 (AID 2306);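 further: 0% = DMSO wells and 100% = chloroquine plus artemisinin control wells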
- experimental setup: P. falciparum 3D7 erythrocytic growth, LDH absorbance, 72 h; at 2 µM; hits give high values
Activity calls are given as the source filed them. How the calls were made is not given here.

| compound | growth inhibition |
| --- | --- |
| COc1ccc(-c2cccc(NC(=O)c3cccc(Cl)c3)c2)cc1CN1CCCC1 | 99% (active) |
| O=c1cc(NCCCCNCc2cccc(Br)c2)[nH]c2ccccc12 | 98% (active) |
| O=C(NC(=S)Nc1cc(C(F)(F)F)cc(C(F)(F)F)c1)c1ccc(Cl)cc1 | 96% (active) |
| CC(=O)N(C)C1CCN(Cc2cccc(-c3ccc(-c4nc5ccc(C(F)(F)F)cc5[nH]4)cc3)c2)C1 (stereo not drawn) | 100% (active) |
| O=S(=O)(Nc1ccc(-c2ccc(CN3CCCC3)cc2)cc1)c1cccc2cccnc12 | 91% (active) |
| C[C@@H](NC(=O)NC(CCN1CCC2(CC1)CN(S(C)(=O)=O)c1ccccc12)c1ccc(Cl)c(Cl)c1)c1ccccc1 (stereo partly drawn) | 92% (active) |
| O=C(Nc1cccc(-c2csc(NC(=O)c3ccc4ccccc4c3)n2)c1)c1ccc2ccccc2c1 | 89% (active) |
| COc1ccc2ccc(F)c(CC(=O)N3CCOC(CNCc4cccc(-c5ccc(F)cc5)n4)C3)c2n1 (stereo not drawn) | 92% (active) |
| CCc1cc(NC2CCN(C)CC2)nc(Nc2ccc(C)cc2)n1 | 95% (active) |
| Cc1noc(C)c1-c1ccc2c(Nc3ccccc3C(C)(C)C)c(C(=O)NCc3ccc(C(F)(F)F)cc3)cnc2c1 | 99% (active) |
| CCCCCCCN(Cc1ccc(OC(C)(C)C(=O)OCC)cc1)C(=O)Nc1ccccc1OC(F)(F)F | 95% (active) |
| CN1CCN(CC(=O)Nc2cccc(-c3ccc(-c4nc5ccc(F)cc5[nH]4)s3)c2)CC1 | 101% (active) |
| Cc1cc(NC(=O)N=C(N)N)ccc1Cl | 100% (active) |
| CCCCCC(C)N=C(Nc1ccc(C#N)cc1O)Nc1ccccc1Br (stereo not drawn) | 98% (active) |
| O=C(Nc1cccc(OCCN2CCCC2)c1)Nc1ccc(Cl)c(Cl)c1 | 98% (active) |
| COc1ccc2ncc(Cl)c(NCC3(O)CCC(NCc4ccc5c(n4)NC(=O)CS5)CC3)c2n1 (stereo not drawn) | 96% (active) |
| COc1ccc(CN(C)CCCOc2ccc(NC(=O)c3cccc4c(=O)c5cccc(C)c5[nH]c34)cc2)cc1OC | 96% (active) |
| Cc1nc2c(Nc3nc(-c4ccncc4)cs3)ncnc2n1-c1ccccc1Cl | 97% (active) |
| Cc1ccc(C(C#N)c2ccc3c(C(F)(F)F)cc(C(F)(F)F)nc3n2)cc1 (stereo not drawn) | 96% (active) |
| O=c1cc(NCCCCNCc2cccc(C(F)(F)F)c2)[nH]c2ccccc12 | 94% (active) |
| CCN1CCN(C(=O)NC(C(=O)N(C)Cc2ccc(-c3ccc(C(F)(F)F)cc3)cc2)c2cccs2)C(=O)C1=O (stereo not drawn) | 99% (active) |
| Cc1ccc(S(=O)(=O)N(CCCNCc2cccc(O)c2)c2ccccc2)cc1 | 95% (active) |
| c1cc(CN2CCN(c3ccncc3)CC2)cc(-c2ccc(-c3nc4ccccc4[nH]3)cc2)c1 | 100% (active) |
| Cc1cccc2[nH]c(-c3cccc(-c4ccc(NC(=O)C(C)CN5CCN(C)CC5)cc4)c3)nc12 (stereo not drawn) | 99% (active) |
| O=C(NCC1CCN(Cc2cccc(F)c2)C1)c1cc(-c2cccc(C(F)(F)F)c2)cs1 (stereo not drawn) | 96% (active) |
| Cc1ccc2nc3c(cc(C(=O)NCCc4ccccc4)c(=N)n3CCCOC(C)C)c(=O)n2c1 | 96% (active) |
| Cc1cc(-c2cccc(CNCc3ccc(F)cc3)c2)ccc1S(=O)(=O)NCCN1CCCC1 | 101% (active) |
| Cc1nc(N)nc(N)c1OCCCOc1ccccc1Br | 94% (active) |
| CCCNCc1ccc(-c2ccc(CN(CCOC)C(=O)COc3ccccc3Cl)cc2)nc1 | 96% (active) |
| COc1ccccc1C(C)NCC(=O)Nc1cc(C(F)(F)F)ccc1Cl (stereo not drawn) | 97% (active) |
| CS(=O)(=O)c1ccccc1CNC(=O)c1ccc(-c2cccc(-c3nc4ccc(C(F)(F)F)cc4[nH]3)c2)cc1 | 91% (active) |
| CCOc1ccc(Br)cc1/C=C/C(=O)Nc1ccc2c(c1)CN(C)CCC2 | 97% (active) |
| Fc1ccc(Nc2ccnc3cc(-c4ccc(CN5CCOCC5)o4)ccc23)c(Cl)c1 | 101% (active) |
| FC(F)(F)c1ccc2nccc(NN=Cc3ccccc3Cl)c2c1 | 101% (active) |
| COc1ccc2nccc([C@@H](O)CN3CCC(NCc4ccc5c(c4)NC(=O)CS5)CC3)c2n1 | 101% (active) |
| COC(=O)c1cccc(C#CCCOCCCCCCNC[C@H](O)c2cc(Cl)c(N)c(Cl)c2)c1 | 97% (active) |
| CCNC(=O)N1CCN(c2nc(-c3ccccc3)nc(COC)c2Cc2ccc(C)cc2)CC1 | 95% (active) |
| CC(C)C[C@@H](/C=N/N1CCNC1=O)NC(=O)[C@H](CC(C)C)NC(=O)c1ccc(OCCN2CCOCC2)cc1 | 97% (active) |

Cited source for all entries: PubChem BioAssay
